method-notes: Thermodynamic aqueous solubility in USP phosphate buffer (Example 25)
Format: physicochemical
condition-details: aqueous buffer, thermodynamic from solid; USP phosphate buffer pH 7.4, 24 h at 20° C., LC-MS/MS; read-out: Thermodynamic aq solubility

given-smiles	solubility thermodynamic at 24 h, µM
CCCCCCC(=O)c1ccc(C(=O)c2ccc(N(C)c3ccc(Cl)cc3)cn2)cc1C(=O)O	153
COc1cccc(C(=O)c2ccc(C(=O)c3ccc(Cc4ccc(Cl)cc4)cn3)cc2C(=O)O)c1	1900
O=C(c1ccc(C(=O)c2cccc(O)c2)c(C(=O)O)c1)c1ccc(N(CC2CC2)c2ccc(Cl)cc2)cn1	1210
COc1ccc(C(=O)c2ccc(C(=O)c3ccc(N(CC4CC4)c4ccc(Cl)cc4F)cn3)cc2C(=O)O)cc1	2480
CN(c1ccc(Cl)cc1)c1ccc(C(=O)c2ccc(C(=O)C3(c4ccccc4)CC3)c(C(=O)O)c2)nc1	680
CN(c1ccc(Cl)cc1)c1ccc(C(=O)c2ccc(C(=O)C34CC5CC(CC(C5)C3)C4)c(C(=O)O)c2)nc1	15

---

measured-on: LTC4 synthase (Homo sapiens, UniProt Q16873)
Sequence (Q16873 whole entry): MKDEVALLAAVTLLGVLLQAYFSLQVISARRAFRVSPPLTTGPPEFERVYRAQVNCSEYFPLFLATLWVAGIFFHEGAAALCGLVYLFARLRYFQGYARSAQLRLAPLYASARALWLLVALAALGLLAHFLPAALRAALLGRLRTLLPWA
method-notes: Test 2: LTC4 synthase IC50 procedure, ten concentrations, LTC4 HTRF kit
Type: biochemical
condition-details: Table 2; cells marked (Test 2)
pIC50: −log10 of the molar value.
reported-property: pIC50

given-smiles	recorded-number
O=C(c1ccc(C(=O)C2CC2)c(C(=O)O)c1)c1ccc(N(CC2CC2)c2ccc(Cl)cc2)cn1	6.37
CC(=O)c1ccc(C(=O)c2ccc(N(CC3CC3)c3ccc(Cl)cc3)cn2)cc1C(=O)O	6.51
CCC(=O)c1ccc(C(=O)c2ccc(N(CC3CC3)c3ccc(Cl)cc3)cn2)cc1C(=O)O	6.89
